For reference, Ki measured on UniProtKB P58154:
recordedEndpoint: Ki (nM)

molecule=CN1[C@@H]2CC[C@H]1C[C@@H](OC1c3ccccc3CCc3ccccc31)C2 measuredresult=2000
molecule="O=C(O[C@H]1C[C@H]2CC[C@@H](C1)N2CC(O)c1cc(O)cc(O)c1)c1ccccc1 (stereo partly drawn)" measuredresult=398
molecule="OC(CN1[C@@H]2CC[C@H]1C[C@@H](OC1c3ccccc3CCc3ccccc31)C2)c1ccccc1 (mixture of isomers)" measuredresult=2000
